Let's look at some compounds and their measured Total Cell Count.
# Test system: U2OS
# experiment description: Multiplex assay against U2OS
# Format: toxicity, cell-based
# stated conditions: human, 12 h, 10 µM, compound concentration 10 uM, replicate 2
reported property: Total Cell Count

compound	reported result
Cl.Oc1ccc2c3c1O[C@H]1c4[nH]c5c(c4C[C@@]4(O)[C@@H](C2)N(CC2CC2)CC[C@]314)C[C@@]1(O)[C@H]2Cc3ccc(O)c4c3[C@@]1(CCN2CC1CC1)[C@H]5O4	73
Cl.O=C(c1ccc(Nc2nccc(-c3cc4ccccc4s3)n2)cc1)N1CCC(N2CCCC2)CC1	73
O=C(Nc1ccc(-c2ccnc(Nc3ccc(N4CCOCC4)cc3)n2)cc1)[C@@H]1CCCN1	65
C=CCn1c(=O)c2cnc(Nc3ccc(N4CCN(C)CC4)cc3)nc2n1-c1cccc(C(C)(C)O)n1	76
Cc1ccc2nc(NCCN)c3ncc(C)n3c2c1.O=C(O)C(F)(F)F.O=C(O)C(F)(F)F	123
CN1CCC(=C2c3ccccc3CC(=O)c3sccc32)CC1.O=C(O)/C=C/C(=O)O [KETOTIFEN FUMARATE]	67
COc1ccc(S(=O)(=O)N(CCO)c2ccccc2CN(C)C/C=C/c2ccc(Cl)cc2)cc1.O=P(O)(O)O	88
O=C(Cc1ccc(-c2ccc(OCCN3CCOCC3)cc2)cn1)NCc1ccccc1	81
Cn1nc(C(F)(F)F)cc1-c1cnc(N2CCc3cc(S(=O)(=O)Nc4c(F)cc(Cl)cc4F)cc(N4CCCC4=O)c32)nc1	133
COC(=N)c1nc2ccc3ncnc(Nc4ccc(OC)cc4F)c3c2s1	179
CCc1cccc(CC)c1NC(=O)c1nn(C)c2c1CCc1cnc(Nc3ccc(C(=O)NC4CCN(C)CC4)cc3OC(F)(F)F)nc1-2	75
NC(=O)c1cccc(-c2cc(Nc3ccc(OC(F)(F)F)cc3)ncn2)c1	125
C=C1/C(=C\C=C2/CCC[C@]3(C)[C@@H]([C@H](C)/C=C/[C@H](C)C(C)C)CC[C@@H]23)C[C@@H](O)C[C@@H]1O	61
Cc1cc(C)c(S(=O)(=O)N(Cc2ccc(-c3cccc(S(C)(=O)=O)c3)cc2)Cc2ccc(C(F)(F)F)o2)c(C)c1	81
O=C(Nc1cccnn1)N1CCC(=Cc2cccc(Oc3ccc(C(F)(F)F)cn3)c2)CC1	336
Cl.O=c1c2cccn2c2ccccc2n1CCCN1CCC(c2ccc(Cl)cc2)CC1	58

###

# System: U2OS
# experiment description: Incucyte cell viability with U2OS; further: filed as whole numbers so only -1 and 0 and 1 occur
# Type: toxicity, cell-based
# stated conditions: human, 6 h, 10 µM, compound concentration 10 uM, replicate number 2, timepoint 6 hours
reported property: Growth Rate

compound	reported result
CCOc1cc2ncc(C#N)c(Nc3ccc(OCc4ccccn4)c(Cl)c3)c2cc1NC(=O)/C=C/CN(C)C [NERATINIB]	1
CC[C@@H]1CN2C(=O)N(C)c3nc(-c4ccccc4)[nH]c3C2=N1.Cl	1
CC(C)(Sc1ccc(CCN(CCCCC2CCCCC2)C(=O)NC2CCCCC2)cc1)C(=O)O [GW7647]	1
Cc1nnc2c3ccccc3c(N[C@@H](C)[C@H](c3ccccc3)N(C)C)nn12	1
Cl.O=C(O)Cc1cccc(OCCCN(Cc2cccc(C(F)(F)F)c2Cl)CC(c2ccccc2)c2ccccc2)c1	0

###

Let's look at some compounds and their measured Total Cell Count.
# Test system: U2OS
# experiment description: Multiplex assay against U2OS
# Format: toxicity, cell-based
# stated conditions: human, 12 h, 1 µM, compound concentration 1 uM, replicate 1

compound	Total Cell Count
CNc1cc(Oc2cc(C(=O)Nc3cc(N4CCN(C)CC4)cc(C(F)(F)F)c3)ccc2C)ncn1	176
CCn1c(=O)c(-c2ccc(-c3cncs3)cc2Cl)cc2cnc(Nc3ccc(N4CCN(C)CC4)cc3)nc21	162
C=CCn1c(=O)c2cnc(Nc3ccc(N4CCN(C)CC4)cc3)nc2n1-c1cccc(C(C)(C)O)n1 [ADAVOSERTIB]	153
O=C1N/C(=N/c2ccccc2F)S/C1=C\c1ccc(C(=O)O)cc1	130
COc1cccc2cc(-c3nc([C@H]4CC[C@H](C(=O)O)CC4)n4ncnc(N)c34)[nH]c12 [OSI-027]	227
CN(C)C(=O)C(CCN1CCC(O)(c2ccc(Cl)cc2)CC1)(c1ccccc1)c1ccccc1.Cl [LOPERAMIDE HYDROCHLORIDE]	181
CCc1cccc(CC)c1NC(=O)c1nn(C)c2c1CCc1cnc(Nc3ccc(C(=O)NC4CCN(C)CC4)cc3OC(F)(F)F)nc1-2	191
Cn1nc(C(F)(F)F)cc1-c1cnc(N2CCc3cc(S(=O)(=O)Nc4c(F)cc(Cl)cc4F)cc(N4CCCC4=O)c32)nc1 [TP-020]	139

###

# Test system: HEK-293T
# experiment description: Multiplex assay against HEK293T
# Format: toxicity, cell-based
# stated conditions: human, 12 h, 1 µM, compound concentration 1 uM, replicate 2
So basically: Population Membrane Permeable-Phenotype (%) at 9% or higher? That is condition met. Lower than 9%? That is condition not met.

molecule	measured on	assigned class
CCOC(=O)c1c(C)[nH]c2ccc3c(c12)CN1CCc2cc(OC)ccc2C1O3 (stereo not drawn)	HEK-293T	condition not met
COC(=N)c1nc2ccc3ncnc(Nc4ccc(OC)cc4F)c3c2s1	HEK-293T	condition not met
O=C(Nc1ccc(-n2nc(-c3cccnc3)cc2C(F)(F)F)cn1)c1ccc(-c2ccccc2)c(F)c1	HEK-293T	condition not met
C=C1/C(=C\C=C2/CCC[C@]3(C)[C@@H]([C@H](C)/C=C/[C@H](C)C(C)C)CC[C@@H]23)C[C@@H](O)C[C@@H]1O	HEK-293T	condition not met
CCCS(=O)(=O)c1nc(NC2CC2)cc(-c2ccc3c(ccn3C3CC(C)(C)NC(C)(C)C3)c2)n1	HEK-293T	condition met
CCN1CCN(c2ccc(Nc3cc(N(C)C(=O)Nc4c(Cl)c(OC)cc(OC)c4Cl)ncn3)cc2)CC1	HEK-293T	condition not met

###

# Tested on: HEK-293T
# experiment description: Multiplex assay against HEK293T
# Assay type: toxicity, cell-based
# stated conditions: human, 24 h, 10 µM, compound concentration 10 uM, replicate 2
So basically: Population Healthy Nuclei (%) at 70% or higher? That is rule met. Lower than 70%? That is rule not met.

molecule	assigned class
CCOc1cc(C(=O)N2CCC(N3CCN(C)CC3)CC2)ccc1Nc1ncc2c(n1)N(C1CCCC1)c1ccccc1C(=O)N2C	rule not met
Cl.Oc1ccc2c3c1O[C@H]1c4[nH]c5c(c4C[C@@]4(O)[C@@H](C2)N(CC2CC2)CC[C@]314)C[C@@]1(O)[C@H]2Cc3ccc(O)c4c3[C@@]1(CCN2CC1CC1)[C@H]5O4	rule met
Cc1ccc2nc(NCCN)c3ncc(C)n3c2c1.O=C(O)C(F)(F)F.O=C(O)C(F)(F)F	rule met
CCOc1cc2ncc(C#N)c(Nc3ccc(OCc4ccccn4)c(Cl)c3)c2cc1NC(=O)/C=C/CN(C)C [NERATINIB]	rule not met
CNc1cc(Oc2cc(C(=O)Nc3cc(N4CCN(C)CC4)cc(C(F)(F)F)c3)ccc2C)ncn1	rule not met
CNC(=O)c1ccc(Nc2nc(OC3CCCC3)c3c(-c4ccc5nc(C)oc5c4)c[nH]c3n2)c(OC)c1	rule met
CCCS(=O)(=O)c1nc(NC2CC2)cc(-c2ccc3c(ccn3C3CC(C)(C)NC(C)(C)C3)c2)n1	rule not met
Cc1cn(-c2cc(NC(=O)c3ccc(C)c(Nc4nccc(-c5cccnc5)n4)c3)cc(C(F)(F)F)c2)cn1 [NILOTINIB]	rule not met
O=C(Cc1ccc(-c2ccc(OCCN3CCOCC3)cc2)cn1)NCc1ccccc1 [TIRBANIBULIN]	rule not met
COc1cc(N2CCN(C)CC2)ccc1Nc1ncc2c(n1)N(C)c1ccccc1C(=O)N2C	rule not met
CN1CCN(C(=O)C(C)(C)c2ccc(C(=O)Nc3cn4cc(-c5cc(C(C)(C)C)cc(C(C)(C)C)c5)ccc4n3)cc2)CC1 [T3-CLK-N]	rule met
CCc1cccc(CC)c1NC(=O)c1nn(C)c2c1CCc1cnc(Nc3ccc(C(=O)NC4CCN(C)CC4)cc3OC(F)(F)F)nc1-2	rule not met
COc1cc2ncnc(Nc3ccc(F)c(Cl)c3)c2cc1NC(=O)/C=C/CN1CCCCC1 [DACOMITINIB ANHYDROUS]	rule met
CN1C2CCC1CC(OC(c1ccc(F)cc1)c1ccc(F)cc1)C2.Cl (stereo unspecified)	rule not met
O=C(Nc1ccc(-n2nc(-c3cccnc3)cc2C(F)(F)F)cn1)c1ccc(-c2ccccc2)c(F)c1 [BI 2049]	rule not met
Cc1ccc(C(=O)Nc2cccc(C(F)(F)F)c2)cc1Nc1nc(-c2cccnc2)nc2c1cnn2C	rule not met
S=C(NCCCc1c[nH]cn1)NCCCN(Cc1ccc(Cl)c(Cl)c1)c1ccc(Br)cn1	rule not met
Cl.O=c1c2cccn2c2ccccc2n1CCCN1CCC(c2ccc(Cl)cc2)CC1	rule not met
CCn1cc(-c2ccnc3[nH]c(-c4cccc(CN(C)C)c4)cc23)c(-c2ccc(NC(=O)N(C)C)cc2)n1 [GSK-1070916]	rule met
COCC(=O)NC/C=C/c1ccc2ncnc(Nc3ccc(Oc4ccc(C)nc4)c(C)c3)c2c1 [CP-724714]	rule not met
CCN1CCN(c2ccc(Nc3cc(N(C)C(=O)Nc4c(Cl)c(OC)cc(OC)c4Cl)ncn3)cc2)CC1 [INFIGRATINIB]	rule met
CCCn1c(=O)c2[nH]c(-c3cnn(Cc4cccc(C(F)(F)F)c4)c3)nc2n(CC)c1=O [GS 6201]	rule not met
COc1cccc2cc(-c3nc([C@H]4CC[C@H](C(=O)O)CC4)n4ncnc(N)c34)[nH]c12 [OSI-027]	rule met
CCn1c(=O)c(-c2ccc(-c3cncs3)cc2Cl)cc2cnc(Nc3ccc(N4CCN(C)CC4)cc3)nc21	rule not met
COC(=N)c1nc2ccc3ncnc(Nc4ccc(OC)cc4F)c3c2s1	rule met
NC(=O)c1cccc(-c2cc(Nc3ccc(OC(F)(F)F)cc3)ncn2)c1	rule met
C=C1/C(=C\C=C2/CCC[C@]3(C)[C@@H]([C@H](C)/C=C/[C@H](C)C(C)C)CC[C@@H]23)C[C@@H](O)C[C@@H]1O [DOXERCALCIFEROL]	rule not met
